Numbers sourced from paper PMC5706701.

- test-target: Human IP6K1 (Homo sapiens, UniProt Q92551)
- Construct: GST (N, cleaved yes); made in house; host or cells: C43 E. coli, pGEX-6P-2
- Sequence (Q92551 whole entry): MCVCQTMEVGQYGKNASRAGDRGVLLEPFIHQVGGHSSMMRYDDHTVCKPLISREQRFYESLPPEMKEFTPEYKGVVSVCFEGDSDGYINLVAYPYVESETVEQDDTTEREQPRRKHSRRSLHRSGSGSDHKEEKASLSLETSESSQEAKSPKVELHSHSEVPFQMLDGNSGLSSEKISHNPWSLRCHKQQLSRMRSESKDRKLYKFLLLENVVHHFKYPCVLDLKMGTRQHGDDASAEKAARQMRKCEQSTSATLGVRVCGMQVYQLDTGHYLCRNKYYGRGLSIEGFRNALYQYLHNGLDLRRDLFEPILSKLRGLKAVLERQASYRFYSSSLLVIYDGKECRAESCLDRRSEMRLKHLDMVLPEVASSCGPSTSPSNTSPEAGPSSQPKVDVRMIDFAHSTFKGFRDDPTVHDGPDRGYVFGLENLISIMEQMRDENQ
- experiment-summary: IP6K1 high-throughput screen of the Sigma LOPAC (ADP-Glo Max, single point);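 note: final compound concentration 10µM in 5% DMSO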
- Format: biochemical
- test-context: LOPAC single-point screen, Z-score against plate average and StDev
Structures can show the parent of a compound that is named as a salt.
Would you kindly list Z-score for each of these compounds?

Prompt: Provide the reported Z-score (system: Human IP6K1 (Homo sapiens, UniProt Q92551)) for "O=C(OCCN1CCOCC1)C1(c2ccccc2)CCCCC1"
Completion: 0.1889

Prompt: Provide the reported Z-score (system: Human IP6K1 (Homo sapiens, UniProt Q92551)) for N=c1ccn2c(n1)O[C@H]1[C@H](O)[C@@H](CO)O[C@H]12 [Ancitabine hydrochloride]
Completion: -0.08544

Prompt: Provide the reported Z-score (system: Human IP6K1 (Homo sapiens, UniProt Q92551)) for Cc1ccccc1N1C(=O)c2cc(S(N)(=O)=O)c(Cl)cc2NC1C (stereo not shown)
Completion: 0.01806

Prompt: Provide the reported Z-score (system: Human IP6K1 (Homo sapiens, UniProt Q92551)) for "O=c1[nH]c2cc(Cl)c(Cl)cc2[nH]c1=O"
Completion: 0.2815

Prompt: Provide the reported Z-score (system: Human IP6K1 (Homo sapiens, UniProt Q92551)) for COc1cc(NS(C)(=O)=O)ccc1Nc1c2ccccc2nc2ccccc12 [Amsacrine hydrochloride]
Completion: 0.1153

Prompt: Provide the reported Z-score (system: Human IP6K1 (Homo sapiens, UniProt Q92551)) for "N[C@@H](Cc1ccc(F)cc1)C(=O)O"
Completion: 0.06072

Prompt: Provide the reported Z-score (system: Human IP6K1 (Homo sapiens, UniProt Q92551)) for CN1CCN(C2=Nc3ccccc3Oc3ccc(Cl)cc32)CC1 [Loxapine succinate]
Completion: 0.09905

---

Would you kindly list Z-score for each of these compounds?
- test-target: Human IP6K1 (Homo sapiens)
- Construct: GST (N, cleaved yes); made in house; host or cells: C43 E. coli, pGEX-6P-2
- experiment-summary: IP6K1 high-throughput screen of the Sigma LOPAC (ADP-Glo Max, single point);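 note: final compound concentration 10µM in 5% DMSO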
- Type: biochemical
- test-context: LOPAC single-point screen, Z-score against plate average and StDev
Structures can show the parent of a compound that is named as a salt.
Enter a number only.

Prompt: Give the reported value of Z-score for this record: OCCN1CCN(CC/C=C2/c3ccccc3Sc3ccc(C(F)(F)F)cc32)CC1 [cis-(Z)-Flupenthixol dihydrochloride]
Completion: 0.2528

Prompt: Give the reported value of Z-score for this record: Br.CCCN1CCC2c3cc(O)ccc3CCC21 (racemic) [cis-(±)-8-OH-PBZI hydrobromide]
Completion: -0.08275

Prompt: Give the reported value of Z-score for this record: CC(C)N(CCC(=O)c1ccc2ccccc2c1)Cc1ccccc1.Cl [ZM 39923 hydrochloride]
Completion: 0.01134

Prompt: Give the reported value of Z-score for this record: Br.C=CCN1CCc2c(cc(O)c(O)c2Br)[C@@H](c2ccccc2)C1 [R(+)-6-Bromo-APB hydrobromide]
Completion: 0.13

Prompt: Give the reported value of Z-score for this record: CC(C)NCC(O)c1cc(O)cc(O)c1.CC(C)NCC(O)c1cc(O)cc(O)c1.O=S(=O)(O)O (stereo not shown) [Metaproterenol hemisulfate]
Completion: 0.1177

Prompt: Give the reported value of Z-score for this record: "CC1=C(/C=C/C(C)=C/C=C/C(C)=C/C=C/C=C(C)/C=C/C=C(C)/C=C/C2=C(C)C(=O)[C@@H](O)CC2(C)C)C(C)(C)C[C@H](O)C1=O"
Completion: -0.08333

Prompt: Give the reported value of Z-score for this record: "CCCn1c(=O)c2[nH]c(C3CCCC3)nc2n(CCC)c1=O"
Completion: 0.1249

Prompt: Give the reported value of Z-score for this record: COCCOC(=O)C1=C(C)NC(C)=C(C(=O)OC(C)C)C1c1cccc([N+](=O)[O-])c1 (stereo not shown)
Completion: 0.2599

Prompt: Give the reported value of Z-score for this record: Br.NC1CCc2cc(O)c(O)cc2C1 (stereo not shown) [6,7-ADTN hydrobromide]
Completion: 0.02274

Prompt: Give the reported value of Z-score for this record: COC(=O)[C@@H]1[C@H]2C[C@H]3c4[nH]c5ccccc5c4CCN3C[C@@H]2CC[C@@H]1O [Yohimbine hydrochloride]
Completion: 0.3328
